- assay.comment: Kinetic solubility at pH 1 and 7
- Assay type: physicochemical
- reported.conditions: 23 °C, aqueous buffer, kinetic from dmso stock; pH 7, 24-hour incubation at ambient temperature, 1.0% DMSO; read-out: Kinetic Solubility pH 7
assay.endpoint: solubility kinetic at 24 h (µM)
Answers are plain numbers, in µM.

{"molecule": "O=c1[nH]c(=O)n(COP(=O)(O)O)cc1-c1cc([C@H]2C[C@@H]2c2ccc3cnn(CC(F)(F)F)c3c2)c2nccn2n1 [Example 2]", "solubility kinetic at 24 h [µM]": 89}
{"molecule": "CC1(C)CN(c2cc(-c3c[nH]c(=O)[nH]c3=O)nn3ccnc23)CC1(F)F [B, reference compound]", "solubility kinetic at 24 h [µM]": 5}
{"molecule": "O=c1[nH]c(=O)n(COP(=O)(O)O)cc1-c1cc([C@H]2C[C@@H]2c2ccc3cnn(CC(F)(F)F)c3n2)c2ncc(F)n2n1 [Example 5]", "solubility kinetic at 24 h [µM]": 86}
{"molecule": "O=c1[nH]cc(-c2cc([C@H]3C[C@@H]3c3ccc4cnn(CC(F)(F)F)c4n3)c3ncc(F)n3n2)c(=O)[nH]1 [E, reference compound]", "solubility kinetic at 24 h [µM]": 8}

Next:
Prompt: Suppose we examine the molecule O=c1[nH]c(=O)n(COP(=O)(O)O)cc1-c1cc([C@H]2C[C@@H]2c2ccc3cnn(CC(F)(F)F)c3c2)n2nccc2n1 [Example 6] ; what solubility kinetic at 24 h value has been reported?
Completion: 85
